All values here come from ChEMBL document CHEMBL4177737.

assayMethodText: Drug level in Balb/c mouse at 30 mg/kg, po BID measured at 7.5 hrs on day 5
Type: ADME, organism-based
protocolConditions: in vivo, read-out: Drug uptake
quantityName: concentration at 7.5 h (nM)
Response body: numeric value in nM, unit text excluded.

[in] # input compound: CC(C)(O)[C@H](F)CNC(=O)C[C@@H]1CCc2cc(C(O)(C(F)(F)F)C(F)(F)F)ccc2N1S(=O)(=O)c1ccc(F)cc1 ; wanted: its concentration at 7.5 h
[out] 21

====

systemTested: Oxysterols receptor LXR-beta (Homo sapiens, UniProt P55055)
Sequence (P55055 whole entry, the tested form may be a part): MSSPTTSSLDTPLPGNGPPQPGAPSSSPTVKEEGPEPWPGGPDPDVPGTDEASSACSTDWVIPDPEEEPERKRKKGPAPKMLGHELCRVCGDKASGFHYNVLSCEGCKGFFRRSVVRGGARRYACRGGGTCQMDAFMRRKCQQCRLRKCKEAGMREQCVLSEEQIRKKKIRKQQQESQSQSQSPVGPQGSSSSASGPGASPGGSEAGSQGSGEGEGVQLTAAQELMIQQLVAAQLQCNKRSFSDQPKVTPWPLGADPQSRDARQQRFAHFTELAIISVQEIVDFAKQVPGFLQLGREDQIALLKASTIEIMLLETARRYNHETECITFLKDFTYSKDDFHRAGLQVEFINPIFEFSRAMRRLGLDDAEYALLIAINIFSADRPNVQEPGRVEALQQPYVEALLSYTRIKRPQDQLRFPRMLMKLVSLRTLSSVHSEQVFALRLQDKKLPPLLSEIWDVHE
assayMethodText: Agonist activity at GAL4-tagged human LXRbeta assessed as receptor activation expressed in African green monkey CV1 cells by luciferase reporter gene assay
Please respond with reported log10 EC50 for every item in the list.
Log10 applied to EC50; unit prior to transform: nM.

[in] Checklist item: log10 EC50 tested on Oxysterols receptor LXR-beta (Homo sapiens, UniProt P55055), entry O=S(=O)(c1ccc(F)cc1)N1CCOc2cc(C(O)(C(F)(F)F)C(F)(F)F)ccc21 , value?
[out] 2.53

[in] Another molecule to check: COC(=O)CC1CN(S(=O)(=O)c2ccc(F)cc2)c2ccc(C(O)(C(F)(F)F)C(F)(F)F)cc2S1 (stereo unspecified)
[out] 2.57

[in] Please answer likewise for CC1(C)CCN(S(=O)(=O)c2ccc(F)cc2)c2ccc(C(O)(C(F)(F)F)C(F)(F)F)cc21
[out] 2.74

[in] Try this molecule next: O=S(=O)(c1ccc(F)cc1)N1CCSc2cc(C(O)(C(F)(F)F)C(F)(F)F)ccc21
[out] 2.27

[in] What about this molecule? CC(C)(O)CC(=O)NCC1CN(S(=O)(=O)c2ccc(F)cc2)c2ccc(C(O)(C(F)(F)F)C(F)(F)F)cc2S1 (stereo unspecified)
[out] 3.02

[in] Param item: O=S(=O)(c1ccc(F)cc1)N1CCCc2cc(C(O)(C(F)(F)F)C(F)(F)F)ccc21
[out] 2.35

[in] Same thing, different molecule: O=C(CC1CN(S(=O)(=O)c2ccc(F)cc2)c2ccc(C(O)(C(F)(F)F)C(F)(F)F)cc2S1)N1CCOCC1 (stereo unspecified)
[out] 3.39

[in] Proceed to CC1CCN(S(=O)(=O)c2ccc(F)cc2)c2ccc(C(O)(C(F)(F)F)C(F)(F)F)cc21 (racemic)
[out] 2.11

[in] One more molecule: O=C(CC1CN(S(=O)(=O)c2ccc(F)cc2)c2ccc(C(O)(C(F)(F)F)C(F)(F)F)cc2S1)Nc1nncs1 (stereo unspecified)
[out] 3.46

[in] Again, but for O=C(CC1CN(S(=O)(=O)c2ccc(F)cc2)c2ccc(C(O)(C(F)(F)F)C(F)(F)F)cc2S1)Nc1ccncc1 (stereo unspecified)
[out] 3.49
